# maps each entry to its melting point

In [3]: df
Out[3]:
                           smiles_structure              value
0  CCCCCc1nc2cc(Cl)ccc2c(=O)n1NC(=O)c1c(O)c2ccccc2n(CC)c1=O  128.4 to 130.2 °C
1  CCCCCc1nc2cc(OC)c(OC)cc2c(=O)n1NC(=O)c1c(O)c2ccccc2n(CC)c1=O  172.4 to 174.1 °C
2  CCCCCc1nc2cc(C)ccc2c(=O)n1NC(=O)c1c(O)c2ccccc2n(CC)c1=O  167.2 to 168.4 °C

Next compound, melting point to be filled in.
*Q* # melting point lookup, item `CCCCCc1nc2c(C)cccc2c(=O)n1NC(=O)c1c(O)c2ccccc2n(CC)c1=O`
*A* 142.7 to 144.3 °C
